target: alpha-glucosidase; assay: Kinetic study of alpha-glucosidase inhibition (Lineweaver–Burk plots); conditions: from plot of slope (Km/Vm) versus inhibitor concentration; p-NPG substrate; read-out: Inhibition constant Ki
readout_type: Ki (µM)
The answer is to be given in µM; state only the numeric part.

Q. Tell us which Ki value is on record for `CC(C)=CCC/C(C)=C/C[C@H]1C[C@]2(CC=C(C)C)C(=O)[C@@](CC=C(C)C)(C(=O)C(C(=O)c3ccc(O)c(O)c3)=C2O)[C@]1(C)CCC=C(C)C`
A. 69.2

* * *

Let's look at some compounds and their measured pIC50.
target: yeast alpha-glucosidase; experiment: Alpha-glucosidase inhibition assay; conditions: isolated compounds
Would you please state pIC50, meaning minus log10 of the concentration in mol/L, as a bare number?

Study these solved cases before continuing.
CC(C)=CCCC1(C)C(CC=C(C)C)CC2(CC=C(C)C)C(=O)C(C(=O)c3ccccc3)=C(O)C1C2=O (stereo not drawn) [Compound 1, epi-guttiferone Q]
4.22
C=C(C)C1CC23C(=O)C4(CC=C(C)CCC=C(C)C)CC(CC2C1(C)C)C(C)(C)C(C(=O)c1ccccc1)(C4=O)C3=O (centres unmarked)
3.94

Then this compound:
Q. Supply reported pIC50 belonging to this compound: CC(C)=CCCC(C)=CCC12CC3CC4C(C)(C)CCC4(C1=O)C(=O)C(C(=O)c1ccccc1)(C2=O)C3(C)C (centres unmarked)
A. 3.88
